Test system: SF-268
Test: NCI tumour cell line growth inhibition, 48 h
Calls of active or inactive are those of the source. No stated cut-off is given here; in the data, active = GI50 up to about 1.1 µM and inactive = higher.
I would appreciate it if you answered using one of these outcomes: true (1) = active, false (0) = inactive

Exercise: Query: recorded result category for COc1ccc(-c2nc3c(C(=O)NCCN(C)C)cccc3c3ccccc23)cc1 in this test
Solution: false (0)

Exercise: And COC(=O)C(=O)C(C(=O)C(=O)Nc1ccc(Cl)cc1Cl)c1nc2ccc(Cl)cc2nc1O (stereo not given) ?
Solution: false (0)

Exercise: Can you handle CC(C)(C)OC(=O)c1ccc(NCC2=C(Br)C(=O)C=CC2=O)cc1 next?
Solution: false (0)

Exercise: O=[N+]([O-])c1cccc(C2=NN(c3ccccc3)C3c4cc(Br)ccc4OCC23)c1 (stereo not given) , same question.
Solution: false (0)

Exercise: Now try CCOC(=O)/C(=C\c1c(C)[nH]c2ccccc12)P(=O)(OCC)OCC .
Solution: false (0)

Exercise: Please answer likewise for COc1cccc2c1Cc1cc(-c3ccccc3)[n+](C)n1-2
Solution: false (0)

Exercise: What do we get for CC(=O)c1cccc(NC(=O)C(=O)C(C2OC(=O)c3ccccc32)[N+](=O)[O-])c1 (stereo not given) ?
Solution: false (0)

Exercise: Do the same for CN(C)CCC(=O)N1C/C(=C\c2ccc(Cl)c(Cl)c2)C(=O)/C(=C/c2ccc(Cl)c(Cl)c2)C1 please
Solution: true (1)

Exercise: Same question for FC(F)(F)c1ccccc1C1SCc2nc3ccccc3n21 (stereo not given) please.
Solution: false (0)

Exercise: Try the compound O=C(O)C(=O)/C=C\c1ccc(Cl)cc1
Solution: false (0)
